- Test system: NCI-H322M lung
- procedure.text: NCI-60 one-dose screen, 48 h
- condition.set: 10 µM unless noted
This is part of a sample that, as a whole, favours compounds with a hit. Of some 83,000 tested, about 20% had one in any assay. Calls of active or inactive are those of the source. How the source made its calls: active means growth percent below 10; inactive means the rest.
Lab note: assign the record to one of active, inactive

Cc1cccc(-c2nc(C(C)C)sc2-c2ccnc(NCCCNS(=O)(=O)c3ccc(Cl)cc3)c2)c1; inactive
CCN(CCNc1ccc(C)c2sc3cc(Cl)ccc3c(=O)c12)CC(C)(C)O; inactive
O=C1/C(=C/c2ccc(Cl)cc2)CN(C(=O)C(Cl)Cl)C/C1=C\c1ccc(Cl)cc1; active
C#CCOc1cccc(Nc2ncnc3cc(NC(=O)CCl)ccc23)c1; active
ClC(Cl)c1nc(-c2ccccc2)n2nc(-c3ccccc3)cc2n1; active

input: Test call for this compound, please: `Oc1c(I)cc(I)cc1CN(Cc1ccccn1)Cc1ccccn1`
output: inactive

input: Test call for this compound, please: `COc1cccc(-c2cn3nc(-c4cn(C)c5ccccc45)sc3n2)c1`
output: inactive

input: Test call for this compound, please: `CCOc1ncc([N+](=O)[O-])c(OCC)n1`
output: inactive

input: Test call for this compound, please: `COc1cc2ncnc(Nc3ccc(F)c(Cl)c3)c2cc1OCC(=O)N1CCOCC1`
output: inactive

input: Test call for this compound, please: `N#Cc1c(-c2ccccc2)cc(-c2ccccc2)n(CCCCC(=O)NO)c1=O`
output: inactive

---

- Test system: UO-31 renal
- procedure.text: NCI-60 one-dose screen, 48 h (100 = growth as untreated, 0 = no growth, -100 = all killed)
- condition.set: 10 µM unless noted
The panel holds about 83,000 compounds, 20% with a hit somewhere; the sample as a whole holds those more often. The source made the active and inactive calls. The calls were made as follows: active = growth percent below 10; inactive = the rest.
readout.name: growth

CCOC(=O)C(CCN(C)C)c1ccccc1 (centres undefined); 90.9% (inactive)
Cc1cccc(N2C(=O)/C(=C/C(Cl)=C/c3ccc([N+](=O)[O-])cc3)SC2=S)c1C; -72.6% (active)
CC(C)n1c2ccc(Br)cc2c2c3c(c4c5ccccc5ccc4c21)C(=O)NC3=O; 59.2% (inactive)
COc1ccc(Oc2ccc(/C=C/C(=O)c3ccc(OC)c(OC)c3)cc2)cc1; 70.9% (inactive)

input: Retrieve growth measured for `COc1ccc(C(=O)Nc2ncc(Cc3ccc(Cl)cc3)s2)cc1` and print it.
output: 37.4% (inactive)

input: Retrieve growth measured for `CN(C)C1CN(C(=O)c2cc(-c3ccc4ncnc(N5CCc6cc(F)c(Cl)cc65)c4c3)cnc2N)C1` and print it.
output: 7.34% (active)

input: Retrieve growth measured for `CC1=C(Cl)C(=O)c2cc(C)ccc2C1=O` and print it.
output: 73.3% (inactive)

input: Retrieve growth measured for `COc1ccc(-c2nc(SCC(=O)Nc3nc4ccc(C)cc4s3)[nH]c(=O)c2C#N)cc1OC` and print it.
output: 61% (inactive)

input: Retrieve growth measured for `COC12C=C/C(=C(/C(=O)OCc3cncnc3)C(=O)CCCCCCCCC3(OC)C=C/C(=C(/C(=O)OCc4cncnc4)C(=O)CCCCCCCC1)O3)O2` and print it.
output: -73.6% (active)

---

- Tested on: HT29 colon
- procedure.text: NCI-60 one-dose screen, 48 h
- condition.set: 10 µM unless noted
The panel holds about 83,000 compounds, 20% with a hit somewhere; the sample as a whole holds those more often. Activity calls are given as the source filed them. The calls were made as follows: active = growth percent below 10; inactive = the rest.
Lab note: assign the record to one of Y for active, N for inactive

COc1cc(Cc2cc(-c3ccccc3)nn(Cc3ccccc3)c2=O)cc(OC)c1OC; N
CN1C(=O)/C(=C/c2ccc(C(=O)Nc3ncc(Cc4cccc(C(F)(F)F)c4)s3)cc2)SC1=S; N
COC1C(O)CC(OC2CC(OC3CC(O[C@@H]4C(=O)c5c(cc6cc(OC7CC(OC8CC(O)C(O)C(C)O8)C(O)C(C)O7)c(C)c(O)c6c5O)CC4[C@H](OC)C(=O)O)OC(C)C3O)OC(C)C2O)OC1C (stereo partly specified); N
CCN(CC)CCOc1ccc(Nc2ncc3cc(-c4c(Cl)cccc4Cl)c(=O)n(CCOC)c3n2)cc1; Y

input: Test call for this compound, please: `CCCCCCCCn1ccc2cc(NC(=O)CN3CCN(c4cc(C)nc(Cl)n4)CC3)ccc21`
output: N

input: Test call for this compound, please: `O=C(Nc1ccc(Nc2ccncc2)cc1)c1ccc(Nc2ccnc3ccc([N+](=O)[O-])cc23)cc1`
output: N

input: Test call for this compound, please: `COc1cc2c(cc1-c1c(C)noc1C)ncc1nc(CN3CCOCC3)n([C@H](C)COC(F)F)c12`
output: N

input: Test call for this compound, please: `COc1cc(-c2nccc3[nH]c(-c4cccc5[nH]ccc45)nc23)cc(OC)c1OC`
output: Y

input: Test call for this compound, please: `Nc1c(C(=O)Nc2cccc3ncccc23)sc2nc3c(cc12)CN(Cc1ccccc1)CC3`
output: N

src = PubChem BioAssay (NCI)
